Target: Recombinant human Factor IX (rhFIX, Genetics Institute) (human, UniProt P00740 47-461)
Sequence (P00740 47-461 limits assumed): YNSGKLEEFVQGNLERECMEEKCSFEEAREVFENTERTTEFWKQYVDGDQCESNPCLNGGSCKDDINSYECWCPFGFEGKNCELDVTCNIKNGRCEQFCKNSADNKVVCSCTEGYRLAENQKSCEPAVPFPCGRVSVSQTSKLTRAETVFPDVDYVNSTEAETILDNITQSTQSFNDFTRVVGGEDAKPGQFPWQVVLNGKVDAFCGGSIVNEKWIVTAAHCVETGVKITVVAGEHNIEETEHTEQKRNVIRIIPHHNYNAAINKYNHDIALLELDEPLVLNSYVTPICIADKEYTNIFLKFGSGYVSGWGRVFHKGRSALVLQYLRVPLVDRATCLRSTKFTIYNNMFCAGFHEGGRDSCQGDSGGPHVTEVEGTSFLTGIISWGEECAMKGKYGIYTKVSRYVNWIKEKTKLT
Test: titration calorimetry
Protocol: The interactions between rhFIX and SB 249417 , BC2 and other humanized constructs were characterized by titration microcalorimetry, which measures binding interactions in solution from the intrinsic heat of binding. Nine injections of 106 uM FIX were made into the calorimeter containing 2 uM mAb SB 249417. Binding was detected in the first 4 injections as exothermic heats. At the last 5 injections the mAb binding sites were saturated with FIX and only background heats of mixing were observed. […]
Parameter: Molar Binding Ratio FIX/mAb. Scope: all listed entries.
Measured endpoint: Molar Binding Ratio FIX/mAb (FIX/mAb)

{"Binder": "humanized anti-human Factor IX monoclonal antibody SB 257732 (antibody, human IgG1, V domains shown, Human IgG1 and kappa constant regions from the vectors; also called F9HZHC 3-0 / F9HZLC 3-0) VH: QIQLVQSGSELKKPGASVKVSCKASGYTFTNYGMNWVRQAPGQGLEWMGWINTRNGKSTYVDDFKGRFVFSLDTSVSTAYLQISSLKAEDTAVYFCTREGNMDGYFPFTYWGQGTLVTVSS VL: QIVLTQSPSSLSASVGDRVTITCRASSSVNYMHWYQQKPGKAPKPWIYATSNLASGVPSRFSGSGSGTDYTLTISSLQPEDFATYYCQQWSINPRTFGGGTKLEIKR", "Value measured": 1.8}
{"Binder": "murine anti-Factor IX monoclonal antibody BC2 (antibody, mouse IgG2a, V domains shown, also called BC2 mAb; BC2 Antibody) VH: QIQLVQSGPELKKPGETVKISCKASGYTFTNYGMNWVKQAPGKGLKWMGWINTRNGKSTYVDDFKGRFAFSLESSASTANLQIDNLKDEDTATYFCTREGNMDGYFPFTYWGQGTLVTVSA VL: QIVLSQSPAILSASPGEKVTMTCRASSSVNYMHWYQQKPGSSPKPWIYATSNLASGVPARFSGSGSGTSYSLTISRVEAEDAATYYCQQWSINPRTFGGGTKLEIKR", "Value measured": 1.4}
{"Binder": "humanized anti-human Factor IX monoclonal antibody SB 249413 (antibody, human IgG1, V domains shown, also called F9HZHC 1-0 / F9HZLC 1-0) VH: QVQLVQSGSELKKPGASVKVSCKASGYTFTNYGMNWVRQAPGQGLEWMGWINTRNGKSTYVDDFKGRFVFSLDTSVSTAYLQISSLKADDTAVYYCAREGNMDGYFPFTYWGQGTLVTVSS VL: EIVLTQSPATLSLSPGERATLSCRASSSVNYMHWYQQRPGQAPRLLIYATSNLASGIPARFSGSGSGTDFTLTISSLEPEDFAVYYCQQWSINPRTFGGGTKVEIKR", "Value measured": 1.9}
{"Binder": "humanized anti-human Factor IX monoclonal antibody SB 249415 (antibody, human IgG1, V domains shown, Human IgG1 and kappa constant regions from the vectors; also called F9HZHC 1-1 / F9HZLC 1-1) VH: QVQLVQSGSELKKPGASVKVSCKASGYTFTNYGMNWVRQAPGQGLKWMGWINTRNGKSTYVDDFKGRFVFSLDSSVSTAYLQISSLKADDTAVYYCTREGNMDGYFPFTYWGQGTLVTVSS VL: EIVLTQSPATLSLSPGERATLSCRASSSVNYMHWYQQRPGQAPKPWIYATSNLASGVPARFSGSGSGTDFTLTISSLEPEDFAVYYCQQWSINPRTFGGGTKVEIKR", "Value measured": 1.7}
{"Binder": "humanized anti-human Factor IX monoclonal antibody SB 249417 (antibody, V domains shown, also called F9HZHC 1-1 / F9HZLC 2-0) VH: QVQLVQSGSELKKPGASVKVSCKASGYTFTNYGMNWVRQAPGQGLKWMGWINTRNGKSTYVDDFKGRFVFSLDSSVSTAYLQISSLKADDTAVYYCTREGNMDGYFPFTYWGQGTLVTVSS VL: QIVLTQSPSSLSASVGDRVTITCRASSSVNYMHWYQQKPGKAPKPWIYATSNLASGVPSRFSGSGSGTDYTFTISSLQPEDIATYYCQQWSINPRTFGQGTKVEIKR", "Value measured": 1.5}
